assay: Acceleration effect of hydroxylamine upon release of pyrazolidones from precursors (half-life); assay type: physicochemical; conditions: release of pyrazolidones, pH 10.0, hydroxylamine present
endpoint: t1/2 Hydroxylamine Present (s)
Your answer is read as s, so omit the unit and give the number.

Give the measured t1/2 Hydroxylamine Present of "CC1(C)CN(c2ccccc2)N(CN2C(=O)c3ccccc3S2(=O)=O)C1=O" .
370

Give the measured t1/2 Hydroxylamine Present of "O=C1CCN(c2ccccc2)N1CN1C(=O)c2ccccc2S1(=O)=O" .
440

Give the measured t1/2 Hydroxylamine Present of CN1C(=O)c2cccc(N(C)C(=O)OC3=NN(c4ccccc4)CC3(C)CO)c2C1=O (stereo not drawn) .
880

Give the measured t1/2 Hydroxylamine Present of O=C1OC(N2C(=O)CCN2c2ccccc2)c2ccc([N+](=O)[O-])cc21 (stereo not drawn) .
450

Give the measured t1/2 Hydroxylamine Present of "O=C1c2ccccc2C(=O)N1COC1=NN(c2ccccc2)CC1" .
390

====

assay: Acceleration effect of hydroxylamine upon release of antifoggant from precursor (HPLC, half-life); assay type: physicochemical; design: key: ratio of half-life without hydroxylamine to half-life with it; details: pH 10.0, half-life hydroxylamine absent vs present
Lab note: class by Acceleration Effect, see A (below 5), B (5 to below 30), C (30 or more)

Hi there! Could you help me figure out the category for CNC(=O)Nc1cccc(-n2nnnc2SCN2C(=O)c3ccccc3S2(=O)=O)c1 [(I)-(16)] please?
C

Hi there! Could you help me figure out the category for O=C1CCC(=O)N1CSc1nnnn1-c1ccccc1 [(II)-(1)] please?
B

Hi there! Could you help me figure out the category for CC(CC#N)Sc1nnnn1-c1ccccc1 (stereo not shown) [Comparison Precursor (A-2), reference compound] please?
A

Hi there! Could you help me figure out the category for O=C1OC(Sc2nnnn2-c2ccccc2)(c2ccccc2)c2ccc([N+](=O)[O-])cc21 (stereo not shown) [(III)-(14)] please?
B

Hi there! Could you help me figure out the category for O=C1c2ccc([N+](=O)[O-])cc2C(=O)N1CSc1nnnn1-c1ccccc1 [(I)-(10)] please?
B

Hi there! Could you help me figure out the category for O=C1OC(Sc2nnnn2-c2ccccc2)c2ccccc21 (stereo not shown) [(III)-(1)] please?
B

Hi there! Could you help me figure out the category for O=C1c2ccccc2S(=O)(=O)N1CSc1nnnn1-c1ccccc1 [(I)-(15)] please?
C

Hi there! Could you help me figure out the category for CN(C(=O)Sc1nnnn1-c1ccccc1)c1cccc2c1COC2=O [(V)-(1)] please?
B

Hi there! Could you help me figure out the category for O=C1CC(Sc2nnnn2-c2ccccc2)C(=O)N1c1ccccc1 (stereo not shown) [Comparison Precursor (A-1), reference compound] please?
A

====

Test: Acceleration effect of hydroxylamine upon release of pyrazolidones from precursors (half-life)
Format: physicochemical
Settings: pH 10.0, half-life hydroxylamine absent vs present
Method: The resulting solution was added to a mixture of 16 ml of acetonitrile and 20 ml of Britton-Robinson buffer solution (Britton-Robinson buffer solution can be prepared by mixing phosphoric acid, boric acid, acetic acid and sodium hydroxide, and of which pH can be adjusted within a pH range of 1.81 to 11.98), and allowed to react (wherein the pH of the solution was controlled by the buffer solution). […]
Give 1 when the value for Acceleration Effect is at least 20. Give 0 when it is less.

I'd appreciate it if you could say whether "O=C1c2ccccc2C(=O)N1CN1C(=O)CCN1c1ccccc1" has Acceleration Effect at least equal to 20.
0

I'd appreciate it if you could say whether "O=C1CCN(c2ccccc2)N1CN1C(=O)c2ccccc2S1(=O)=O" has Acceleration Effect at least equal to 20.
1

I'd appreciate it if you could say whether "O=C1c2ccccc2C(=O)N1COC1=NN(c2ccccc2)CC1" has Acceleration Effect at least equal to 20.
0

I'd appreciate it if you could say whether CN1C(=O)c2cccc(N(C)C(=O)OC3=NN(c4ccccc4)CC3(C)CO)c2C1=O (stereo not drawn) has Acceleration Effect at least equal to 20.
0

I'd appreciate it if you could say whether "CC1(C)CN(c2ccccc2)N(CN2C(=O)c3ccccc3S2(=O)=O)C1=O" has Acceleration Effect at least equal to 20.
0

I'd appreciate it if you could say whether O=C1OC(N2C(=O)CCN2c2ccccc2)c2ccc([N+](=O)[O-])cc21 (stereo not drawn) has Acceleration Effect at least equal to 20.
1
